Known log10(t½) of a selection of binders
- Measured On: SARS-COV-2 RBD extracellular domain expressed with a C-terminal mouse IgG2a Fc (SARS-CoV-2)
- Method Description: Biacore SPR, mAb captured on anti-hFc, 37 C
Parameter: log10(t½) (log10 of the value in h)

INSERT INTO results (binder, reported_value) VALUES
  ('mAb15162 (antibody, V domains shown) VH: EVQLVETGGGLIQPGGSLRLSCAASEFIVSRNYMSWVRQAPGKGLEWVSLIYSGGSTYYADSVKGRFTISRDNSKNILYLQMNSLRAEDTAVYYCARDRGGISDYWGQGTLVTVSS VL: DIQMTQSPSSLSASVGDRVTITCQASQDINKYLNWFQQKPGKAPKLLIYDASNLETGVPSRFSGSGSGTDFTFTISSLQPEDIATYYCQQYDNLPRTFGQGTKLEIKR', 0.28),
  ('mAb14281 (antibody, V domains shown) VH: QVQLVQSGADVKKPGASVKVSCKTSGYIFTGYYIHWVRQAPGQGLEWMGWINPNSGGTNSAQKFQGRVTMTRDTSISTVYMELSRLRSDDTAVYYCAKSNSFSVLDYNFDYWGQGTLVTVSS VL: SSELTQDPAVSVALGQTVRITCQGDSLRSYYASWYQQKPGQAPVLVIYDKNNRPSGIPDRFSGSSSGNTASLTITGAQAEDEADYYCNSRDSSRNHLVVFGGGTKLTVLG', -0.28),
  ('mAb14284 (antibody, V domains shown) VH: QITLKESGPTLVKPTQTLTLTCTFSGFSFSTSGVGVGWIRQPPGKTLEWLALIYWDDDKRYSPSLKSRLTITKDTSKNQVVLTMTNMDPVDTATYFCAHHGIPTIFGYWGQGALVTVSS VL: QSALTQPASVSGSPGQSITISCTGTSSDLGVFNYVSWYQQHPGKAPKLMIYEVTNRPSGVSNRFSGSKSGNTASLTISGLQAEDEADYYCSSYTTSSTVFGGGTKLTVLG', 0.93),
  ('mAb13458 (antibody, V domains shown) VH: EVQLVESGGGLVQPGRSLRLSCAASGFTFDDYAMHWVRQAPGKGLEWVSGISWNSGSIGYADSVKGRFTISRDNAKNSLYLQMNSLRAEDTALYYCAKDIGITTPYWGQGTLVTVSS VL: AIQMTQSPSSLSASVGDRVTITCRASQDIRNDLGWYQQKPGKAPKLLIYSASSLQTGVPSRFSGSGSGTDFTLTISSLHPEDFATYYCLQDYWYTWTFGQGTKVEIKR', 0.32),
  ('mAb14230 (antibody, V domains shown) VH: EVQLVESGGGLIQPGRSLRLSCAASGFTFDDYAMHWVRQAPGKGLEWVSGISWNSVSIDYADSVKGRFTISRDNAKNSLYLQMTSLTVEDTALYYCAKAFGYETLTGSDYFAYWGPGTLVTVSS VL: EIVLTQSPGTLSLSPGERATLSCRASQTVISTYLAWYQQKPGQSPRLLIYGASSRATGIPDRFSGSGSGTDFTLTISRLEPEDFAVYYCQQYGSSPQLTFGGGTKVEIKR', -0.41),
  ('mAb14256 (antibody, V domains shown) VH: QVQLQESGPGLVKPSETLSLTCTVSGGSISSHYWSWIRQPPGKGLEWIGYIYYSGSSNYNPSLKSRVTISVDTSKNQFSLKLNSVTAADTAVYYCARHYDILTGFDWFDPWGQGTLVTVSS VL: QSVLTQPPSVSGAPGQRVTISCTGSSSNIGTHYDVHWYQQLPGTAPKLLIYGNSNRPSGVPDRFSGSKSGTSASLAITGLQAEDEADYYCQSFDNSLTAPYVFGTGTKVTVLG', -0.39),
  ('mAb15159 (antibody, V domains shown) VH: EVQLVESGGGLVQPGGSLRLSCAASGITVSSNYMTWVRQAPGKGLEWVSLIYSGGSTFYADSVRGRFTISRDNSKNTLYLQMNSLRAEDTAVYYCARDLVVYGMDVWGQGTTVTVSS VL: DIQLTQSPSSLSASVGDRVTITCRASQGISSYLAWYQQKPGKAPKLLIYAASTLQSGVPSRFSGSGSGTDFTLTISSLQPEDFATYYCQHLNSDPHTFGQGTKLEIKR', 0.81),
  ('mAb15166 (antibody, V domains shown) VH: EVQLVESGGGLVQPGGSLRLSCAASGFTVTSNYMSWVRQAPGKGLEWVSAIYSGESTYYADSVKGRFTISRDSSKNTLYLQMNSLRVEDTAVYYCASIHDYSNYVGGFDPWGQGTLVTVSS VL: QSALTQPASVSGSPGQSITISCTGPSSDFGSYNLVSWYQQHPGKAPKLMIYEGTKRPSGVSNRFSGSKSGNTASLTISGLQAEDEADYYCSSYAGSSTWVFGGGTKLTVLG', 0.29),
  ('mAb15170 (antibody, V domains shown) VH: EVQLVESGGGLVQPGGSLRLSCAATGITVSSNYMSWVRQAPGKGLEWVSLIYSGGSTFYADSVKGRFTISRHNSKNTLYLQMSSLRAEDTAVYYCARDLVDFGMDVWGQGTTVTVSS VL: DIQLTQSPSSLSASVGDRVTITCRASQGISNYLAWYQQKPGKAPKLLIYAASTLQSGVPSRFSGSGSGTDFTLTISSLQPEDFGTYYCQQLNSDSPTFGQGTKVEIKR', 0.90),
  ('mAb15157 (antibody, V domains shown) VH: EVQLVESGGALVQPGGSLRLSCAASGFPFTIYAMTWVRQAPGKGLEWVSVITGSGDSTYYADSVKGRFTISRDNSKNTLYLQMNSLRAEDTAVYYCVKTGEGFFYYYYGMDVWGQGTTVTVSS VL: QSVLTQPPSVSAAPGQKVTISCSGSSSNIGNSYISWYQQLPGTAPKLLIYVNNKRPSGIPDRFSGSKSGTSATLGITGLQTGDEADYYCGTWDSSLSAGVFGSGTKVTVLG', 0.26);
